Source of measurements: patent US11090319B2

Here the recorded IC50 is given for each entry.
- study_system: various β-lactamases (bacterial lysates) (Escherichia coli, UniProt A0A649V088)
- Sequence (A0A649V088 29-291): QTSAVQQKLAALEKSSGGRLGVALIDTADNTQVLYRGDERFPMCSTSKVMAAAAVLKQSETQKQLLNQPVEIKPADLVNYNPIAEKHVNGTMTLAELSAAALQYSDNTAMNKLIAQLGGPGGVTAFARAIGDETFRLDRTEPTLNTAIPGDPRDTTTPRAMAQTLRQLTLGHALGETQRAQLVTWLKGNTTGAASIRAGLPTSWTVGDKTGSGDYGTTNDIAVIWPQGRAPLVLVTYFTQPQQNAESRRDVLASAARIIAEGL
- protocol_description: biochemical
- condition_label: read-out: AZT IC50 KP1005 CTX-M-14
parameter_measured: IC50

compound=O=C(O)C[C@@H]1CC[C@H](NC(=O)Cn2ccnc2-c2ccccc2)B(O)O1 value="< 1400 nM"
compound="CC(=O)N[C@H]1CCC(CC(=O)O)OB1O (some centres unmarked)" value="< 2330 nM"
compound=NC1(CC(=O)N[C@H]2CC[C@@H](CC(=O)O)OB2O)CCCCC1 value="> 6410 nM"
compound="O=C(O)[C@H]1/C(=C/CO)O[C@@H]2CC(=O)N21 [Clavulanic Acid, reference compound]" value="275 nM"
compound=O=C(O)C[C@@H]1CC[C@H](NC(=O)[C@@H]2CCCCN2)B(O)O1 value="> 7040 nM"
compound=CCOC(=O)C[C@@H]1CC[C@H](NC(=O)Cc2cccs2)B(O)O1 value="1540 to 6150 nM"
compound=O=C(O)C[C@@H]1CC[C@H](NC(=O)Cc2ccccc2)B(O)O1 value="< 1720 nM"
compound=N[C@@H](CCC(=O)N[C@H]1CC[C@@H](CC(=O)O)OB1O)C(=O)O value="> 6620 nM"
compound=O=C(O)C[C@@H]1CC[C@H](NC(=O)Cc2cc(F)cc(F)c2)B(O)O1 value="1530 to 6110 nM"
compound=O=C(O)C[C@@H]1CC[C@H](NC(=O)Cc2cccnc2)B(O)O1 value="1710 to 6850 nM"
compound=Nc1nc(/C(=N/OCc2cc(=O)c(O)cn2O)C(=O)N[C@H]2CC[C@@H](CC(=O)O)OB2O)cs1 value="1040 to 4160 nM"
compound=O=C(O)C[C@@H]1CC[C@H](NC(=O)c2ccc(Cn3cnnn3)cc2)B(O)O1 value="< 1390 nM"
compound="NC(Cc1cccnc1)C(=O)N[C@H]1CC[C@@H](CC(=O)O)OB1O (some centres unmarked)" value="> 6230 nM"
compound=O=C(O)C[C@@H]1CC[C@H](NC(=O)c2ccccc2)B(O)O1 value="< 1800 nM"
compound=O=C(O)C[C@@H]1CC[C@H](NC(=O)Cc2cccs2)B(O)O1 value="< 1680 nM"
compound=NCCSCC(=O)N[C@H]1CC[C@@H](CC(=O)O)OB1O value="1720 to 6890 nM"
compound=O=C(O)C[C@@H]1CC[C@H](NC(=O)CCc2ccccc2)B(O)O1 value="< 1640 nM"
compound=Cc1nc2ccccc2n1CCC(=O)N[C@H]1CC[C@@H](CC(=O)O)OB1O value="1390 to 5570 nM"
compound=O=C(O)C[C@@H]1CC[C@H](NC(=O)Cc2ccncc2)B(O)O1 value="1710 to 6850 nM"
compound=Nc1cc(CC(=O)N[C@H]2CC[C@@H](CC(=O)O)OB2O)ccn1 value="1630 to 6510 nM"
compound=N=C(N)NCCC[C@@H](N)C(=O)N[C@H]1CC[C@@H](CC(=O)O)OB1O value="> 6080 nM"
compound=CO/N=C(\C(=O)N[C@H]1CC[C@@H](CC(=O)O)OB1O)c1csc(N)n1 value="< 1400 nM"
compound="CSCCC(N)C(=O)N[C@H]1CC[C@@H](CC(=O)O)OB1O (some centres unmarked)" value="> 6580 nM"
compound=Nc1nc(CC(=O)N[C@H]2CC[C@@H](CC(=O)O)OB2O)cs1 value="1600 to 6390 nM"
compound=N[C@H]1CC[C@@H](CC(=O)N[C@H]2CC[C@@H](CC(=O)O)OB2O)CC1 value="1600 to 6410 nM"
compound=O=C(O)C[C@@H]1CC[C@H](NC(=O)C[C@@H]2CCCCN2)B(O)O1 value="> 6710 nM"
compound="O=C(O)CC1CC[C@H](NC(=O)C2CC2)B(O)O1 (some centres unmarked)" value="< 2070 nM"
compound=N[C@H](C(=O)N[C@H]1CC[C@@H](CC(=O)O)OB1O)c1ccccc1 value="< 1630 nM"
compound=NCCC(=O)N[C@H]1CC[C@@H](CC(=O)O)OB1O value="> 8190 nM"
